Where these numbers come from: patent US9809598B2

- Study target: TNKS1 (Homo sapiens)
- Construct: GST-tagged Tnks-1 (1023-1327 aa, prepared in-house); made in house
- Experimental protocol: TNKS1 activity ELISA (autoparsylation assay)
- Assay type: biochemical
- Test parameters: GST-tagged Tnks-1 (1023-1327 aa)
Readout kind: IC50 (nM)
The figure you give is taken to be in nM; do not add the unit.

See these solved cases before continuing.
{"columns": ["Compound", "Study target", "Measured number"],
 "data": [
  ["N#Cc1cc(C2CCN(C(=O)CCCc3nc4c(c(=O)[nH]3)CCCC4)CC2)cnc1N [Compound C232]", "TNKS1 (Homo sapiens)", 20],
  ["Cn1ncc2c(=O)[nH]c(CCCC(=O)N3CCC(c4nnc(-c5ccccc5)o4)CC3)nc21 [Compound C46]", "TNKS1 (Homo sapiens)", 2.9],
  ["COc1ccc(C(=O)C2CCN(C(=O)CCCc3nn4cc(C)cc4c(=O)[nH]3)CC2)cc1F [Compound C158]", "TNKS1 (Homo sapiens)", 0.44]
]}

Field: next compound
Q. Sample Cc1nc(CCCC(=O)N2CCC(C(=O)c3ccc(F)cc3)CC2)[nH]c(=O)c1C [Compound C240] — what was its IC50?
A. 14

---

Overview of reported log10(IC50) across a group of compounds:
- Study target: TNKS1 (Homo sapiens, UniProt O95271)
- Construct: GST-tagged Tnks-1 (1023-1327 aa, prepared in-house); made in house
- Sequence (O95271 1023-1327): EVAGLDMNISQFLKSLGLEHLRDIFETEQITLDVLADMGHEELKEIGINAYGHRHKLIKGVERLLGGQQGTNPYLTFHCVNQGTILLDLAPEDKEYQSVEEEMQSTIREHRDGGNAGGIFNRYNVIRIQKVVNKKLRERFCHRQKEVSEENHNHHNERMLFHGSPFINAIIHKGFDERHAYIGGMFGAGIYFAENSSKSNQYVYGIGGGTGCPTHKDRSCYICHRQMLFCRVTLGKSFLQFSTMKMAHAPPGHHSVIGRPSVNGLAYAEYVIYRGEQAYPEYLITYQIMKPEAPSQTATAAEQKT
- Experimental protocol: TNKS1 activity ELISA (autoparsylation assay)
- Format: biochemical
- Test parameters: GST-tagged Tnks-1 (1023-1327 aa)
Give log10 of IC50, with IC50 taken in nM.

{"columns": ["Compound", "Study target", "log10(IC50)"],
 "data": [
  ["Cn1ccc2c(=O)[nH]c(CCCC(=O)N3CCC(C(=O)c4ccc(F)cc4)CC3)nc21 [Compound C186]", "TNKS1 (Homo sapiens, UniProt O95271)", -0.39],
  ["Cc1scc2c(=O)[nH]c(CCCC(=O)N3CCC(C(=O)c4ccc(C(C)(C)O)cc4)CC3)nc12 [Compound C121]", "TNKS1 (Homo sapiens, UniProt O95271)", 0.67],
  ["Cc1cc2c(=O)[nH]c(CCCC(=O)N3CCC(C(=O)c4ccc(F)cc4)CC3)nn2c1 [Compound C164]", "TNKS1 (Homo sapiens, UniProt O95271)", -0.10],
  ["Cc1csc2c(=O)[nH]c(CCCC(=O)N3CCC(c4nnc(-c5ccccc5)o4)CC3)nc12 [Compound C54]", "TNKS1 (Homo sapiens, UniProt O95271)", 0.67],
  ["CCc1cc(=O)[nH]c(CCCC(=O)N2CCC(C(=O)c3ccc(F)cc3)CC2)n1 [Compound C252]", "TNKS1 (Homo sapiens, UniProt O95271)", 1.54]
]}

Q. Entry N#Cc1ccc(OC2CCN(C(=O)CCCc3cn4cccc4c(=O)[nH]3)CC2)cc1 [Compound C5] , system TNKS1 (Homo sapiens, UniProt O95271): what log10(IC50) was measured?
A. -0.89

Q. Next compound: Cc1cc2c(=O)[nH]c(CCCC(=O)N3CCC(C(=O)c4cnn(C)c4)CC3)cn2n1 [Compound C209]
A. -0.12

Q. Next compound: Cc1ccc2c(=O)[nH]c(CCCC(=O)N3CCC(c4cnc(N)c(-c5ncccn5)c4)CC3)nn12 [Compound C150]
A. -0.64

Q. Next compound: Cc1scc2c(=O)[nH]c(CCCC(=O)N3CCC(C(=O)c4cnn(C)c4)CC3)nc12 [Compound C123]
A. -0.17

---

- Test system: Tankyrases
- Test parameters: read-out: EC50 [M] TNKS cellular assay; DLD1 cells, 24 hours, Axin2 increase
Overview of reported EC50 across a group of compounds:
The figure you give is taken to be in M; do not add the unit.

See these solved cases before continuing.
{"columns": ["Compound", "Measured number"],
 "data": [
  ["COc1ccc(C(=O)C2CCN(C(=O)CCCc3cn4c(F)ccc4c(=O)[nH]3)CC2)cc1 [Compound C9]", "7.2e-10"],
  ["Cc1scc2c(=O)[nH]c(CCCC(=O)N3CCC(c4cnc(N)c(-c5ncccn5)c4)CC3)nc12 [Compound C116]", "3.6e-09"]
]}

Field: next compound
Q. Entry COc1ccc(C(=O)C2CCN(C(=O)CCCc3cn4c(C)ccc4c(=O)[nH]3)CC2)cn1 [Compound C57] , system Tankyrases: what EC50 was measured?
A. 7.7e-10

---

Overview of reported IC50 across a group of molecules:
- Study target: PARP-1 (Homo sapiens)
- Construct: purchased Enzo Life Sciences GmbH, Lörrach, Germany
- Experimental protocol: PARP-1 autoparsylation assay (HTRF)
- Assay type: biochemical
- Test parameters: His-tagged Parp-1, autoparsylation HTRF
The figure you give is taken to be in µM; do not add the unit.

See these solved cases before continuing.
{"columns": ["Molecule", "Output unit", "IC50"],
 "data": [
  ["COc1ccc(C(=O)C2CCN(C(=O)CCCc3cn4c(C)ncc4c(=O)[nH]3)CC2)cc1 [Compound C33]", "µM", 5.5],
  ["CC(C)n1cc(C(=O)C2CCN(C(=O)CCCc3nn4cc(F)cc4c(=O)[nH]3)CC2)cn1 [Compound C221]", "µM", 1.9],
  ["Cc1csc2c(=O)[nH]c(CCCC(=O)N3CCC(C(=O)c4cnn(C)c4)CC3)nc12 [Compound C135]", "µM", 0.42],
  ["Cn1ncc2c(=O)[nH]c(CCCC(=O)N3CCC(c4cnc(N)c(C#N)c4)CC3)nc21 [Compound C44]", "µM", 18],
  ["COc1ccc(C(=O)C2CCN(C(=O)CCCc3nn4cc(C)cc4c(=O)[nH]3)CC2)cn1 [Compound C159]", "µM", 2.2]
]}

Q. Sample Cc1cc2c(=O)[nH]c(CCCC(=O)N3CCC(c4cnc(N)c(C#N)c4)CC3)nn2c1 [Compound C160] — what was its IC50?
A. 3.3

---

- Study target: PARP-1 (Homo sapiens, UniProt P09874)
- Construct: purchased Enzo Life Sciences GmbH, Lörrach, Germany
- Sequence (P09874 whole entry): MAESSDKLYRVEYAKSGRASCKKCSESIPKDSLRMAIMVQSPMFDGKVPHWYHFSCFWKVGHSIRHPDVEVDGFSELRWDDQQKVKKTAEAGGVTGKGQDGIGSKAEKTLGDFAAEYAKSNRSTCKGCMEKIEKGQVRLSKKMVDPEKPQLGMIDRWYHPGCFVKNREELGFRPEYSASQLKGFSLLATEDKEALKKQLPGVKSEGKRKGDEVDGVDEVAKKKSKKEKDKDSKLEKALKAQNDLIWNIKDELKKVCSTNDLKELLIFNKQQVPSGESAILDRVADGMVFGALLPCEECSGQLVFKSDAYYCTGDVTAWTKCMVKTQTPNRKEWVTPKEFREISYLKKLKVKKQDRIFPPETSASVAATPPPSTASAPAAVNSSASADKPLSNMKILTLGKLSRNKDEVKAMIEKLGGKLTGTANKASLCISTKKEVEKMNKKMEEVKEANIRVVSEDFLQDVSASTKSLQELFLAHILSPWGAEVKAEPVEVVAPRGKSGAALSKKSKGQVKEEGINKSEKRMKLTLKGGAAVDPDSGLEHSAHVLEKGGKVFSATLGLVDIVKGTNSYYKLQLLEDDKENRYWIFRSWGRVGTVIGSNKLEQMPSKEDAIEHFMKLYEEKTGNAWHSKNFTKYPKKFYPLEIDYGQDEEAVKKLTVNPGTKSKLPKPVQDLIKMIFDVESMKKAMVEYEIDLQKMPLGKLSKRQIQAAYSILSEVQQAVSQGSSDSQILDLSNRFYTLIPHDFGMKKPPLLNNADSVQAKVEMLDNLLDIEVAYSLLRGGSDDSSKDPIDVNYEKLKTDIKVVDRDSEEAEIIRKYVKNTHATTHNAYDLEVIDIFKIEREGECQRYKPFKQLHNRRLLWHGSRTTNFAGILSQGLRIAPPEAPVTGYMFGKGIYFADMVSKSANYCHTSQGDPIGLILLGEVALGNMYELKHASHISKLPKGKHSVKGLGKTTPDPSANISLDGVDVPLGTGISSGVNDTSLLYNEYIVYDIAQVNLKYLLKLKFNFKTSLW
- Experimental protocol: PARP-1 autoparsylation assay (HTRF)
- Assay type: biochemical
- Test parameters: His-tagged Parp-1, autoparsylation HTRF
Overview of reported log10 IC50 across a group of compounds:
Give log10 of IC50, with IC50 taken in µM.

See these solved cases before continuing.
{"columns": ["Chemical string", "Study target", "log10 IC50"],
 "data": [
  ["Cc1cc2c(=O)[nH]c(CCCC(=O)N3CCC(C(=O)c4cnn(C)c4)CC3)nn2c1", "PARP-1 (Homo sapiens, UniProt P09874)", 0.76],
  ["CCn1cc(C(=O)C2CCN(C(=O)CCCc3nc4c(ccn4C)c(=O)[nH]3)CC2)cn1", "PARP-1 (Homo sapiens, UniProt P09874)", 0.62],
  ["Cc1cc2c(=O)[nH]c(CCCC(=O)N3CCC(c4nnc(-c5ccccc5)o4)CC3)nn2c1", "PARP-1 (Homo sapiens, UniProt P09874)", 0.15],
  ["Cc1cc2c(=O)[nH]c(CCCC(=O)N3CCC(C(=O)c4ccc(F)cc4)CC3)nn2c1", "PARP-1 (Homo sapiens, UniProt P09874)", 0.34],
  ["COc1ccc(C(=O)C2CCN(C(=O)CCCc3nn4cccc4c(=O)[nH]3)CC2)cn1", "PARP-1 (Homo sapiens, UniProt P09874)", 1.32]
]}

Q. Entry COc1ccc(C(=O)C2CCN(C(=O)CCCc3nc4c(cnn4C)c(=O)[nH]3)CC2)cn1 , system PARP-1 (Homo sapiens, UniProt P09874): what log10 IC50 was measured?
A. 1.26

---

- Study target: TNKS2 (Homo sapiens)
- Construct: GST-tagged Tnks-2 (873-1166 aa, prepared in-house); made in house
- Sequence (Q9H2K2 873-1166): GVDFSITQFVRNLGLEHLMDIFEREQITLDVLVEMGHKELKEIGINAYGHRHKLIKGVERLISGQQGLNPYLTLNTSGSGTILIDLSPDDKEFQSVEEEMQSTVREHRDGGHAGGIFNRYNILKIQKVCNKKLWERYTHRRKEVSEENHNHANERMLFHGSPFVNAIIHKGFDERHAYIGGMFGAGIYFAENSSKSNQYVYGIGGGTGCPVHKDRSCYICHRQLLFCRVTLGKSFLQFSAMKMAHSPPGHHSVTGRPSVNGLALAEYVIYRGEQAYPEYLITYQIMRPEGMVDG
- Experimental protocol: TNKS2 activity ELISA (autoparsylation assay)
- Assay type: biochemical
- Test parameters: GST-tagged Tnks-2 (873-1166 aa); read-out: IC50 [M] TNKS2 ELISA
Readout kind: IC50 (M)
The figure you give is taken to be in M; do not add the unit.

See these solved cases before continuing.
{"columns": ["Chemical string", "Output unit", "Measured number"],
 "data": [
  ["COc1ccc(C(=O)C2CCN(C(=O)CCCc3nc4c(cnn4C)c(=O)[nH]3)CC2)cc1C", "M", "1.4e-10"],
  ["COc1ccc(C(=O)C2CCN(C(=O)CCCc3nc4c(cnn4C)c(=O)[nH]3)CC2)cc1", "M", "1.3e-10"],
  ["Cc1cc2c(=O)[nH]c(CCCC(=O)N3CCC(c4cnc(N)c(-c5ncccn5)c4)CC3)nn2c1", "M", "2.9e-09"],
  ["CC(C)n1cc(C(=O)C2CCN(C(=O)CCCc3nn4cccc4c(=O)[nH]3)CC2)cn1", "M", "1.2e-09"]
]}

Field: next compound
Q. Sample CCc1cc(=O)[nH]c(CCCC(=O)N2CCC(C(=O)c3ccc(F)cc3)CC2)n1 — what was its IC50?
A. 1.7e-08
